# measured-on: Cathepsin Z (Homo sapiens, UniProt Q9UBR2)
# Sequence (Q9UBR2 whole entry): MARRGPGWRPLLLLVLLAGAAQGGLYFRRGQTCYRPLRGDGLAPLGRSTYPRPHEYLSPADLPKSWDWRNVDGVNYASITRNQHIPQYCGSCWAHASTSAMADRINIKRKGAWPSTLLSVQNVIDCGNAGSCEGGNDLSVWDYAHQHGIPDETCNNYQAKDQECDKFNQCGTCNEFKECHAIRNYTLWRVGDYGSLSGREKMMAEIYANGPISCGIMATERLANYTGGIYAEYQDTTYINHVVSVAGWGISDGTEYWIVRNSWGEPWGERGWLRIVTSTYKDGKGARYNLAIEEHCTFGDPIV
# protocol-text: Inhibition of human cathepsin X expressed in Pichia pastoris assessed as residual activity at 50 uM using Abz-FEK(Dnp)-OH as substrate incubated for 30 to 45 mins by fluorescence assay relative to control
# recorded-conditions: time 30-45 min
Please note: Activity exactly at 60% is False. Only values below 60% get True.

1. O=C(CSc1cccs1)c1ccc2c(c1)OCCO2 : True
2. N#Cc1ccc(-n2cnnc2SCC(=O)c2ccc3c(c2)OCCO3)cc1 : True
3. CC(C)n1cnnc1SCC(=O)c1cccc([N+](=O)[O-])c1 : False
4. CC(C)Oc1ccc(C(=O)CSc2nncn2C(C)C)cc1 : False

----------
# measured-on: Cathepsin Z (Homo sapiens)
# protocol-text: Inhibition of human cathepsin X expressed in Pichia pastoris assessed as residual activity at 50 uM using Abz-FEK(Dnp)-OH as substrate incubated for 30 to 45 mins by fluorescence assay relative to control
# recorded-conditions: time 30-45 min
quantity: Activity (%)

1) CC(C)n1cnnc1SCC(N)c1ccc2c(c1)OCCO2 (configuration not stated) : 90
2) CC(C)n1cnnc1SCC(=O)c1ccc2c(c1)OCO2 : 24
3) CO/N=C(\CSc1nncn1C(C)C)c1ccc2c(c1)OCCO2 : 90
4) Cn1cnnc1SCC(=O)c1ccc2c(c1)OCCO2 : 17
5) CC(C)n1cnnc1SCC(=O)c1ccc(OCC(=O)O)cc1 : 85
6) COc1ccccc1C(=O)CSc1nncn1C(C)C : 49
7) CC(C)n1cnnc1SCC(=O)c1ccc(C#N)cc1 : 92
8) O=C(COc1nnc[nH]1)c1ccc2c(c1)OCCO2 : 71
9) O=C(CSc1nc(C2CCCCC2)n[nH]1)c1ccc2c(c1)OCCO2 : 30
10) CC(C)n1cnnc1SCC(=O)c1ccc2c(c1)OCCO2 : 15
11) CC(C)n1cnnc1SCC(=O)c1ccc(O)cc1 : 73
12) CC(C)n1cnnc1SCC(=O)c1c[nH]c2ccccc12 : 27

----------
# measured-on: Cathepsin S (Homo sapiens)
# Sequence (P25774 whole entry): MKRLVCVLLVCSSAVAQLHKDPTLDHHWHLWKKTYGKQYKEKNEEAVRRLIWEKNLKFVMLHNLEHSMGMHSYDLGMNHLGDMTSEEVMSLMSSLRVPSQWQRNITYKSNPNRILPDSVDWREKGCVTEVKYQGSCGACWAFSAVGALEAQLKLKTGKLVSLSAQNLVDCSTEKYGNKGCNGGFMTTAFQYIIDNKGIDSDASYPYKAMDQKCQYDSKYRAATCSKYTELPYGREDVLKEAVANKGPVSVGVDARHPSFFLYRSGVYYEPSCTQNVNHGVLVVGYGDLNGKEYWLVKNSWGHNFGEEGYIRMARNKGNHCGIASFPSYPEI
# protocol-text: Inhibition of human cathepsin S expressed in Pichia pastoris using Z-VVR-AMC as substrate by fluorescence assay
pIC50: −log10 of the molar value.
quantity: pIC50

1. N#CCn1ccnc1SCC(=O)c1ccc2c(c1)OCCO2 : 3.62

----------
# measured-on: UniProt:Q9UBR2
# protocol-text: Inhibition of human cathepsin X expressed in Pichia pastoris assessed as residual activity at 50 uM using Abz-FEK(Dnp)-OH as substrate incubated for 30 to 45 mins by fluorescence assay relative to control
# recorded-conditions: time 30-45 min
Each entry below carries its reported Activity.
quantity: Activity (%)

1. CC(C)n1cnnc1SCC(O)c1ccc2c(c1)OCCO2 (stereo not given) : 98
2. O=C(CSc1nc(-c2ccccc2)n[nH]1)c1ccc2c(c1)OCCO2 : 37
3. COc1cccc(C(=O)CSc2nncn2C(C)C)c1 : 73
4. CCn1cnnc1SCC(=O)c1ccc2c(c1)OCCO2 : 24
5. O=C(CSc1ncc[nH]1)c1ccc2c(c1)OCCO2 : 17
6. Cc1[nH]c2ccccc2c1C(=O)CSc1nncn1C(C)C : 62
7. Cc1n[nH]c(SCC(=O)c2ccc3c(c2)OCCO3)n1 : 28
8. CC(C)n1cnnc1SCC(=O)c1ccccc1 : 100
9. CC(C)n1cnnc1SCC(=O)c1ccc(Br)cc1 : 77
10. COc1ccc(C(=O)CSc2nncn2C(C)C)cc1 : 66
11. O=C(CSc1nc(C2CCCCC2)nn1C(=O)C1CCCCC1)c1ccc2c(c1)OCCO2 : 43
12. CC(C)n1cnnc1SCC(=O)C(C)(C)C : 80
13. N#CCn1ccnc1SCC(=O)c1ccc2c(c1)OCCO2 : 12
14. O=C(CSc1nncn1-c1cccnc1)c1ccc2c(c1)OCCO2 : 22
15. O=C(CSc1nnc[nH]1)c1ccc2c(c1)OCCO2 : 23
16. CC(C)n1cnnc1SCC(=O)c1ccc(OCC#N)cc1 : 69
17. CN(C)c1ccc(-n2cnnc2SCC(=O)c2ccc3c(c2)OCCO3)cc1 : 55
18. Cn1ccnc1SCC(=O)c1ccc2c(c1)OCCO2 : 15
19. NC(=O)c1ccc(-n2cnnc2SCC(=O)c2ccc3c(c2)OCCO3)cc1 : 35
20. Cn1nnnc1SCC(=O)c1ccc2c(c1)OCCO2 : 36
21. O=C(CSc1nccs1)c1ccc2c(c1)OCCO2 : 22
22. Cc1ccc(C(=O)CSc2nncn2C(C)C)cc1 : 75
23. CC(C)n1cnnc1SCC(=O)c1ccc(N(C)C)cc1 : 41
24. O=C(CSc1ccccc1)c1ccc2c(c1)OCCO2 : 48
25. O=C(CSc1nc(-c2ccncc2)n[nH]1)c1ccc2c(c1)OCCO2 : 33

Each recorded value in this set is attributed to ChEMBL document CHEMBL4680241.
